- TARGET DESC: Adrenergic receptor alpha-2 (Rattus norvegicus, UniProt P22086+P19328+P22909)
- ASSAY OVERVIEW: Displacement of clonidine from Alpha-2 adrenergic receptor in rat brain cortex
- Assay type: tissue-based
Field: Ki. Provide a value for each of the molecules that follow.
Enter your answer as a number in nM; do not include the unit.

Would you kindly share the measured Ki for Cn1c(=O)n2c(CN3CCN(c4ccccc4Cl)CC3)cnc2c2ccccc21 ?
525

What measured Ki goes with COc1ccccc1N1CCN(Cc2cn3c(O)nc4ccccc4c3n2)CC1 ?
6760

Find the recorded Ki belonging to COc1ccccc1N1CCN(Cc2cnc3c4ccccc4n(C)c(=O)n23)CC1 and report it.
3090

Need Ki of COc1ccccc1N1CCN(CC2CN=C3Nc4ccccc4S(=O)(=O)N32)CC1 (stereo not given) , thanks.
460

// lookup Ki for Oc1nc2ccccc2c2ncc(CN3CCN(c4ccccc4Cl)CC3)n12
2720

Requested read-out: Ki. Entry: Cn1c(=O)n2cc(CN3CCN(c4ccccc4Cl)CC3)nc2c2ccccc21
513

Suppose we examine the molecule O=S1(=O)c2ccccc2NC2=NCC(CN3CCN(c4ccccc4Cl)CC3)N21 (stereo not given) ; what Ki value has been reported?
2290

Ki lookup needed for Oc1nc2ccccc2c2nc(CN3CCN(c4ccccc4Cl)CC3)cn12 , thanks.
4510

Quick one: Ki for COc1ccccc1N1CCN(Cc2cn3c(=O)n(C)c4ccccc4c3n2)CC1 ?
3250

Ki for COc1ccccc1N1CCN(Cc2cnc3c4ccccc4nc(O)n23)CC1 ?
7830

----------
I'd be grateful if you could share measured Ratio for these entries.
- ASSAY OVERVIEW: Selectivity ratio for binding affinity towards alpha2 and alpha-1 adrenoceptors
Output: the number by itself.

Look up Ratio: COc1ccccc1N1CCN(C[C@H]2CN=C3c4ccccc4N=C(SC)N32)CC1
3500

May I ask what Ratio has been recorded for Cn1c(=O)n2cc(CN3CCN(c4ccccc4Cl)CC3)nc2c2ccccc21 ?
36

Quick check: Ratio of COc1ccccc1N1CCN(CC2CN3C(=O)Nc4ccccc4C3=N2)CC1 (stereo not drawn) ?
247

Data request, read-out Ratio, for COc1ccccc1N1CCN(CC2CN=C3c4ccccc4NC(=O)N32)CC1 (stereo not drawn)
2820

Returns the measured Ratio for the input compound. Input: COc1ccccc1N1CCN(Cc2cn3c(O)nc4ccccc4c3n2)CC1
1030

Param item = COc1ccccc1N1CCN(CC2CN=C3c4ccccc4N=C(SC)N32)CC1 (stereo not drawn) ; retrieve measured Ratio.
1080

What Ratio value was documented for this compound, Cn1c(=O)n2c(CN3CCN(c4ccccc4Cl)CC3)cnc2c2ccccc21 ?
123

If you can, please state the reported Ratio value of O=S1(=O)c2ccccc2NC2=NCC(CN3CCN(c4ccccc4Cl)CC3)N21 (stereo not drawn) .
194

----------
- TARGET DESC: 5-hydroxytryptamine receptor 1A (Rattus norvegicus, UniProt P19327)
- Sequence (P19327 whole entry): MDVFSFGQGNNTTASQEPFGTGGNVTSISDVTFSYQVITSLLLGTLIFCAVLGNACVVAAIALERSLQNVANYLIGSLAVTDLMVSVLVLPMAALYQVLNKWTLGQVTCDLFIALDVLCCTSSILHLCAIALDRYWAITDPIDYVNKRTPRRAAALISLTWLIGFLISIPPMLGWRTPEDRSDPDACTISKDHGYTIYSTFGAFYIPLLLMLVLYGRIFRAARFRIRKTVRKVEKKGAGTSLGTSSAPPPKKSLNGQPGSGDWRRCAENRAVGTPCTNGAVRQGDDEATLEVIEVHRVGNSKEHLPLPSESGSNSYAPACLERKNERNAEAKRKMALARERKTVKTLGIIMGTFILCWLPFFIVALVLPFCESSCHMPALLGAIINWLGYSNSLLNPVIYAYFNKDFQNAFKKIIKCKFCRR
Field: label. Allowed values: rule met (Ki < 0.2 µM) or rule not met (Ki >= 0.2 µM).

In the record for COc1ccccc1N1CCN(CC2CN=C3c4ccccc4NC(=O)N32)CC1 (stereo not given) , is Ki less than 0.2 µM?
rule met

Determine if COc1ccccc1N1CCN(CC2CN=C3c4ccccc4N=C(SC)N32)CC1 (stereo not given) shows Ki strictly lower than 0.2 µM.
rule not met

Quick check: does COc1ccccc1N1CCN(CC2CN3C(=O)Nc4ccccc4C3=N2)CC1 (stereo not given) have Ki under 0.2 µM?
rule not met

is_below(Ki, 0.2 µM) for COc1ccccc1N1CCN(Cc2cnc3c4ccccc4nc(O)n23)CC1 ?
rule not met

Please indicate whether the reported Ki of COc1ccccc1N1CCN(CCn2c(=O)[nH]c3ccccc3c2=O)CC1 is strictly below 0.2 µM.
rule met

----------
Consider the following compounds; for each one, report its pKi.
# pKi is unitless: minus log10 of the molar concentration; print number only

So what pKi did COc1ccccc1N1CCN(C[C@@H]2CN=C3c4ccccc4N=C(SC)N32)CC1 get with Alpha-1B adrenergic receptor (Rattus norvegicus)?
6.18

// map COc1ccccc1N1CCN(CCn2c(=O)[nH]c3ccccc3c2=O)CC1 to recorded pKi (system: Alpha-1B adrenergic receptor (Rattus norvegicus))
Sequence (P15823 whole entry): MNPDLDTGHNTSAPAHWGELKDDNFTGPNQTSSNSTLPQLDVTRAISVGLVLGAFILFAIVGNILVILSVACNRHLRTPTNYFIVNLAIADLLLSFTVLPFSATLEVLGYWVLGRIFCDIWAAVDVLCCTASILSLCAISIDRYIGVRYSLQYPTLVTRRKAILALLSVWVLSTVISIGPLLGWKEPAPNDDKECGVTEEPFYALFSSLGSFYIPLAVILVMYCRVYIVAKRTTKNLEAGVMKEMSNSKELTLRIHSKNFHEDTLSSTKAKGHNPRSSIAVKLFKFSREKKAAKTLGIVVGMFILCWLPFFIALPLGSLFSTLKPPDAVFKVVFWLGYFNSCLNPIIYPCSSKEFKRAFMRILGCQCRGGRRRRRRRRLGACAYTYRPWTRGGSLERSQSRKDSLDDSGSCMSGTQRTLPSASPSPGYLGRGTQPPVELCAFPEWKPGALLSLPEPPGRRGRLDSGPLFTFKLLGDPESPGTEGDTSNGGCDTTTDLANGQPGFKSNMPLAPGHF
8.96

Hi! What's the reported pKi for COc1ccccc1N1CCN(C[C@H]2CN=C3c4ccccc4N=C(SC)N32)CC1 on Alpha-1B adrenergic receptor (Rattus norvegicus)?
8.85
